- ASSAY INFO: One-photon absorption spectra of dyes (λmax abs, logε)
- Format: physicochemical
- CONDITION PARAMETERS: PBS buffer
READOUT: λmax abs (nm)

CCCCN(CCCC)c1ccc2cc(/C=C(\F)c3cc[n+](CCC[N+](CC)(CC)CC)cc3)ccc2c1F | 409
CCCCN(CCCC)c1ccc2cc(/C=C(\F)c3cc[n+](CCC[N+](CC)(CC)CC)cc3)ccc2c1 | 493
CCCCN(CCCC)c1ccc2cc(/C=C/c3c(F)c[n+](CCC[N+](CC)(CC)CC)cc3F)ccc2c1 | 530
CCCCN(CCCC)c1ccc2cc(/C=C/c3cc[n+](CCC[N+](CC)(CC)CC)cc3F)ccc2c1F | 414
CCCCN(CCCC)c1ccc2cc(/C=C/c3cc[n+](CCC[N+](CC)(CC)CC)cc3)ccc2c1F | 401
